experimentalProtocol: Quantitative High-Throughput drug screen in 47 multiple myeloma cell lines against the NCATS MIPE library collection: JIM3_ECACC cell viability assay (AID 1918963; note: nearly all actives have a fitted effect of over 35% in size; note: potency is the fitted concentration of half-maximal effect)
statedConditions: JIM3 myeloma viability, CellTiter-Glo ATP, 48 h; series mostly up to 45.8 µM
Source text: PI: Beverly A. Mock Ph.D. Laboratory of Cancer Biology and Genetics, Center for Cancer Research, National Cancer Institute, National Institute of Health, Bethesda, Maryland […] 5; Detector; 425V; Luminescence; Viewlux PerkinElmer. […] 1. […] Briefly, the corresponding myeloma cell lines were screened in 1,536-well plates with 500 cells, 5-uL per well for inhibition of cell viability (assessed by measuring ATP levels with CellTiterGlo). […]
Results filed as inconclusive are left out. The source made the active and inactive calls. Calls come from the whole dose curve; as a rule, active = well fitted cell-killing curve with a large enough effect; inconclusive = small, poorly fitted or top-dose-only effect; inactive = no such curve, though single readings can be large or run the other way.
endpointName: Potency

# smilesEntry, result
records = [
    ("CC(=O)O[C@H]1C[C@@H]2CC[C@H]3[C@H]4C[C@H]([N+]5(C)CCCCC5)[C@@H](OC(C)=O)[C@@]4(C)CC[C@@H]3[C@@]2(C)C[C@H]1N1CCCCC1", "inactive"),
    ("C#C[C@]1(O)CC[C@@H]2[C@@H]3CCC4=CC(=O)CC[C@@H]4[C@H]3CC[C@@]21CC", "inactive"),
    ("CCOC(=O)N1CCN([N+]([O-])=NOc2ccc([N+](=O)[O-])cc2[N+](=O)[O-])CC1", "2640 nM (active)"),
    ("CC(Oc1ccc(O)cc1)(P(=O)(O)O)P(=O)(O)O", "inactive"),
]

###

experimentalProtocol: Quantitative High-Throughput drug screen in 47 multiple myeloma cell lines against the NCATS MIPE library collection: ARP1_JJKsccF8 cell viability assay (AID 1918928; note: nearly all actives have a fitted effect of over 40% in size)
statedConditions: ARP1 myeloma cells viability, CellTiter-Glo ATP, 48 h; series mostly up to 45.8 µM
Records with an inconclusive call do not appear. Active and inactive are the calls of the source. The call rests on the fitted dose curve; in most records, active means well fitted cell-killing curve with a large enough effect; inconclusive means small, poorly fitted or top-dose-only effect, or effect the other way; inactive means no such curve, though single readings can be large or run the other way.
The categories you may choose from are active, inactive

# molecule, cat
data = [
    ("Cc1nc(NC(=O)N2CCC[C@@H]2C(N)=O)sc1-c1ccnc(C(C)(C)C(F)(F)F)c1", "active"),
    ("CCCCCCCN(CC)CCCC(O)c1ccc(NS(C)(=O)=O)cc1 (configuration not stated)", "inactive"),
    ("COc1ccc2cc([S+]([O-])Cc3ncc(C)c(OC)c3C)nc2c1", "inactive"),
    ("CC(=O)N[C@@H]1[C@H](O[C@@H]2c3ccc(c(Cl)c3)Oc3cc4cc(c3O[C@H]3O[C@H](CO)[C@@H](O)[C@H](O)[C@H]3NC(=O)CCCCCCCC(C)C)Oc3ccc(cc3Cl)C[C@H]3NC(=O)[C@H](N)c5ccc(O)c(c5)Oc5cc(O)cc(c5)[C@H](NC3=O)C(=O)N[C@H]4C(=O)N[C@H]3C(=O)N[C@@H]2C(=O)N[C@@H](C(=O)O)c2cc(O)cc(O[C@H]4O[C@H](CO)[C@@H](O)[C@H](O)[C@H]4O)c2-c2cc3ccc2O)O[C@H](CO)[C@@H](O)[C@@H]1O", "inactive"),
    ("Oc1ccc([C@@H]2Oc3ccc(O)cc3[C@@H]3CCC[C@@H]32)cc1", "active"),
    ("C[C@@H](Oc1ccc2[nH]nc(C=Cc3cnn(CCO)c3)c2c1)c1c(Cl)cncc1Cl", "active"),
]

query: Check the results log: what was the call for `CC(C)c1cnn2c(NCc3ccccc3)cc(NCCCCCCN)nc12` ?
result: active

query: Check the results log: what was the call for `CC[C@H]1OC(=O)[C@H](C)[C@@H](O[C@H]2C[C@@](C)(OC)[C@@H](O)[C@H](C)O2)[C@H](C)[C@@H](O[C@@H]2O[C@@H](C)C[C@H](N(C)C)[C@@H]2O)[C@](C)(O)C[C@@H](C)C(=O)[C@H](C)[C@@H](O)[C@]1(C)O` ?
result: inactive

query: Check the results log: what was the call for CN(N=O)C(=O)N[C@H]1C(O)OC(CO)[C@@H](O)[C@H]1O (some centres not stated) ?
result: inactive

query: Check the results log: what was the call for `COc1ccc(Nc2nccc(NCCO)n2)cc1` ?
result: inactive
